// data source = paper PMC5888399

experiment: S48168 plasma and GC muscle levels; assay type: in vivo, mouse; settings: mdx, mouse, gastrocnemius (GC) skeletal muscle, oral, 50 mg/kg, Skeletal muscle (GC) concentration (mean), 12 wk treatment, UNIBA
measuredAttribute: concentration at 2 h
Answer with the figure and its unit, nothing else.

Given the entry COc1ccc2c(c1)CN(Cc1ccc(C(=O)O)cc1)CCS2 [S48168/ARM210] , report its measured concentration at 2 h.
1160 ng/g

###

test: S48168 plasma and GC muscle levels; type: in vivo, mouse; conditions: mdx, mouse, gastrocnemius (GC) skeletal muscle, oral, 50 mg/kg, Skeletal muscle (GC) concentration (mean), 4 wk treatment, UNIBA
measuredAttribute: concentration at 2 h (ng/g)
Kindly answer with a numeric value in ng/g, unit omitted.

I have this molecule here, COc1ccc2c(c1)CN(Cc1ccc(C(=O)O)cc1)CCS2 [S48168/ARM210] , and I need its recorded concentration at 2 h.
512

###

assay: S48168 plasma and GC muscle levels; format: in vivo, mouse; settings: mdx, mouse, plasma, oral, 50 mg/kg, Plasma concentration (mean), 50 mg/kg, 4 wk treatment, UNIBA, about 2 h after drinking water withdrawn
measuredAttribute: concentration at 2 h (ng/mL)
Express the result in ng/mL but write the number alone.

Need concentration at 2 h, item `COc1ccc2c(c1)CN(Cc1ccc(C(=O)O)cc1)CCS2`
3020

###

experiment: S48168 plasma and GC muscle levels; format: in vivo, mouse; settings: mdx, mouse, plasma, oral, 10 mg/kg, Plasma concentration (mean), 10 mg/kg, 4 wk treatment, UNIBA, about 2 h after drinking water withdrawn
measuredAttribute: concentration at 2 h (ng/mL)
Numbers only; they are read as ng/mL.

What value of measured concentration at 2 h is listed for `COc1ccc2c(c1)CN(Cc1ccc(C(=O)O)cc1)CCS2` ?
881

###

assay: S48168 plasma and GC muscle levels; format: in vivo, mouse; details: mdx, mouse, gastrocnemius (GC) skeletal muscle, oral, 10 mg/kg, Skeletal muscle (GC) concentration (mean), 12 wk treatment, UNIBA
measuredAttribute: concentration at 2 h (ng/g)
Express it in ng/g; write the number only.

Consider the compound `COc1ccc2c(c1)CN(Cc1ccc(C(=O)O)cc1)CCS2` and give its measured concentration at 2 h.
123
